All values here come from the kinase profiling compilation of Christmann-Franck et al. (2016).

target: SIK2 (human); assay: radiometric filter-binding kinase assay, Kinase HotSpot; conditions: compound 0.5 µM; ATP 10 µM
Quantity: residual activity
Number plus unit, in that order.

The following molecules have reported results that may help.
FC(F)(F)c1ccc(/C=C/c2nc(COc3ccc(CCCCn4ccnn4)cc3)co2)cc1
103%
O=c1c(-c2ccc(F)cc2)c(-c2ccncc2)[nH]n1-c1ccc(Cl)cc1
101%
O=C1NC(=O)c2cc(Nc3ccc(F)cc3)c(Nc3ccc(F)cc3)cc21
103%
COc1cc2c(N3CCN(C(=O)Nc4ccc(OC(C)C)cc4)CC3)ncnc2cc1OCCCN1CCCCC1
98.9%

We now examine a further molecule.
I am curious: what residual activity value has been reported for COc1cc2ncnc(Nc3ccc(O)c(Br)c3)c2cc1OC ?
92.2%
